// provenance: the supplement of paper PMC9262897

System: E. coli TESEC Mtb Alr
procedureSummary: growth (OD600 after 10 h); higher = more growth (less inhibition)
reportedConditions: arabinose 10000000 nM; compound 0.1 mM; raw OD600 reference: median of DMSO wells […], cell-free background 0.052
Where a name gives a salt, the structure may show the parent alone.
growth values for the compounds below.

Examples with their reported growth follow.
NC[C@@H]1O[C@H](O[C@H]2[C@@H](O)[C@H](O[C@@H]3[C@@H](O)[C@H](N)C[C@H](N)[C@H]3O[C@H]3O[C@H](CN)[C@@H](O)[C@H](O)[C@H]3N)O[C@@H]2CO)[C@H](N)[C@@H](O)[C@@H]1O [Neomycin sulfate]    0.343
CC[C@]12CCCN3CCc4c(n(c5ccccc45)[C@@](O)(C(=O)OC)C1)[C@@H]32    0.322

Turning to the following compound.
Query string: Report measured growth; entry is `C[C@H]1C[C@H]2[C@@H]3CCC4=CC(=O)C=C[C@]4(C)[C@@]3(F)[C@@H](O)C[C@]2(C)[C@@]1(O)C(=O)CO`
Result string: 0.257

====

growth values for the molecules below.
Tested on: E. coli TESEC Mtb Alr
procedureSummary: growth (OD600 after 10 h); higher = more growth (less inhibition)
reportedConditions: arabinose 1000000 nM; compound 0.1 mM; raw OD600 reference: median of DMSO wells 0.193, cell-free background 0.041
API note: the answer field is a bare number with no unit suffix.

CN[C@H]1CC[C@@H](c2ccc(Cl)c(Cl)c2)c2ccccc21 [Sertraline]    0.0393
CCC1=C(C)CN(C(=O)NCCc2ccc(S(=O)(=O)NC(=O)N[C@H]3CC[C@H](C)CC3)cc2)C1=O [Glimepiride]    0.182
CCCCC(O)c1ccccc1 (stereo not given) [Fenipentol]    0.178

Turning to the following molecule.
Query string: Report measured growth; entry is O=C1CCC(N2C(=O)c3ccccc3C2=O)C(=O)N1 (stereo not given) [Thalidomide]
Result string: 0.192

====

growth values for the compounds below.
System: E. coli TESEC Mtb Alr
procedureSummary: growth (OD600 after 10 h); higher = more growth (less inhibition)
reportedConditions: arabinose 100000 nM; compound 0.1 mM; raw OD600 reference: median of DMSO wells 0.201, cell-free background 0.041
Structures can show the parent of a compound that is named as a salt.
API note: the answer field is a bare number with no unit suffix.

CCOc1ccc2ccccc2c1C(=O)N[C@@H]1C(=O)N2[C@@H]1SC(C)(C)[C@@H]2C(=O)O [Nafcillin sodium salt monohydrate]    0.203

Query string: Report measured growth; entry is CCOc1ccc(Cc2nccc3cc(OCC)c(OCC)cc23)cc1OCC [Ethaverine hydrochloride]
Result string: 0.0664

Query string: Report measured growth; entry is CCCC(=O)Nc1ccc(OCC(O)CNC(C)C)c(C(C)=O)c1 (configuration not stated) [Acebutolol hydrochloride]
Result string: 0.202

Query string: Report measured growth; entry is `C[C@]12C=CC(=O)C=C1CC[C@@H]1[C@@H]2C(=O)C[C@@]2(C)[C@H]1CC[C@]2(O)C(=O)CO`
Result string: 0.203

Query string: Report measured growth; entry is CC[N+](CC)(CC)CCOc1cccc(OCC[N+](CC)(CC)CC)c1OCC[N+](CC)(CC)CC [Gallamine triethiodide]
Result string: 0.233

Query string: Report measured growth; entry is CC(=O)N(CC(O)CN(C(C)=O)c1c(I)c(C(=O)NCC(O)CO)c(I)c(C(=O)NCC(O)CO)c1I)c1c(I)c(C(=O)NCC(O)CO)c(I)c(C(=O)NCC(O)CO)c1I (configuration not stated)
Result string: 0.182

Query string: Report measured growth; entry is `CNC(=O)c1c(I)c(C(=O)NCC(=O)Nc2c(I)c(C(=O)O)c(I)c(C(=O)NCCO)c2I)c(I)c(N(C)C(C)=O)c1I`
Result string: 0.219

Query string: Report measured growth; entry is CN(C)CCOC(c1ccccc1)c1ccccc1 [Diphenhydramine hydrochloride]
Result string: 0.187

Query string: Report measured growth; entry is NC[C@@H]1O[C@H](O[C@H]2[C@@H](O)[C@H](O[C@@H]3[C@@H](O)[C@H](N)C[C@H](N)[C@H]3O[C@H]3O[C@H](CN)[C@@H](O)[C@H](O)[C@H]3N)O[C@@H]2CO)[C@H](N)[C@@H](O)[C@@H]1O [Neomycin sulfate]
Result string: 0.219

Query string: Report measured growth; entry is Nc1nc2ccc(OC(F)(F)F)cc2s1 [Riluzole hydrochloride]
Result string: 0.212

Query string: Report measured growth; entry is Cc1cccc(CN2CCN(C(c3ccccc3)c3ccc(Cl)cc3)CC2)c1 (configuration not stated) [Meclozine dihydrochloride]
Result string: 0.174

Query string: Report measured growth; entry is `CC(C)c1ccc2oc3nc(N)c(C(=O)O)cc3c(=O)c2c1`
Result string: 0.157

Query string: Report measured growth; entry is `CCCc1nc(C)c2c(=O)nc(-c3cc(S(=O)(=O)N4CCN(CC)CC4)ccc3OCC)[nH]n12`
Result string: 0.18

Query string: Report measured growth; entry is `CC(=O)N[C@@H](CS)C(=O)O`
Result string: 0.203
